- System: N-terminal CRD of hGalectin-4 (Gal-4N) (Homo sapiens)
- Construct: N-terminal CRD of hGalectin-4 (amino acids 1–150, including an additional C-terminus His-Tag); His-Tag (C, cleaved yes); made in house; host or cells: E. coli BL21 (pET29b)
- Sequence (P56470 1-150): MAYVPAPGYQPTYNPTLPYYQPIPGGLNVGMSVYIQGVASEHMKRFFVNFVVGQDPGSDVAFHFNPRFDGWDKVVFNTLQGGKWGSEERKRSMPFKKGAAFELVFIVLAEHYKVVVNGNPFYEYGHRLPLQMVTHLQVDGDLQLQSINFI
- Protocol: 1H-15N HSQC NMR-based titrations (chemical shift perturbation) of 15N-labeled Gal-4N
- Format: binding
- Assay context: NMR titration; read-out: KD
Assay readout: Kd (µM)
// note: answer is a bare numeric in µM

IN: Form field: reported Kd of OC[C@H]1O[C@@H](O[C@H]2[C@H](O)[C@@H](O)C(O)O[C@@H]2CO)[C@H](O)[C@@H](O)[C@H]1O (mixture of isomers) [Lactose]
OUT: 1600
